- Test system: AML cells / panel of leukemic cell lines
- TEST_PROTOCOL: Leukemic cell proliferation, viable cell count by trypan blue exclusion
- Format: cell-based, human
- EXPERIMENTAL_CONDITIONS: Homo sapiens; 48 hours, trypan blue exclusion, range over cell lines; read-out: IC50, cell death of non-adherent, anchorage-independent AML cells
QUANTITY_MEASURED: IC50

The value of IC50 measured for the molecule COc1ccc(/C=C\c2cc(OC)c(OC)c(OC)c2)cc1OP(=O)(O)O [CA4P, combretastatin A-4 phosphate] turned out to be 2.5 to 5 nM
